Species on record: Rattus norvegicus
Test: Open TG-GATES - Regimen: Single
Type: toxicity, organism-based, Sprague-Dawley
Set-up: regimen Single, gender Male, age 6 weeks
Details: in vivo, po, 1000 mg/kg, 3 h, tissue Blood, route gavage, dose level High
VALUE KIND: Bas (%)
Return type: number; implicit unit %.

MOLECULE: COc1ccc2[nH]c([S+]([O-])Cc3ncc(C)c(OC)c3C)nc2c1 (stereo not given)
Bas [%]: 0
--
MOLECULE: NC(N)=Nc1nc(CSCCC(N)=NS(N)(=O)=O)cs1
Bas [%]: 0
--
MOLECULE: CC(C)OC(=O)C(C)(C)Oc1ccc(C(=O)c2ccc(Cl)cc2)cc1 [FENOFIBRATE]
Bas [%]: 0.2

According to the records, this molecule CCOC(=O)CCC(=O)O[C@H]1[C@H](O[C@@H]2[C@@H](C)[C@H](O[C@H]3C[C@@](C)(OC)[C@@H](O)[C@H](C)O3)[C@@H](C)C(=O)O[C@H](CC)[C@@](C)(O)[C@H](O)[C@@H](C)C(=O)[C@H](C)C[C@@]2(C)O)O[C@H](C)C[C@@H]1N(C)C [ERYTHROMYCIN ETHYLSUCCINATE] displays Bas of 0

Measured Bas, `COC1=CC(=O)C[C@@H](C)[C@]12Oc1c(Cl)c(OC)cc(OC)c1C2=O` : 0

###

// TERMINAL_BW lookup, one value per entry
Species: Rattus norvegicus
Assay: Open TG-GATES - Regimen: Daily Repeat
Assay type: toxicity, organism-based, Sprague-Dawley
Parameters: regimen Daily Repeat, gender Male, age 6 weeks
Conditions: in vivo, po, 10 mg/kg, 72 h, route gavage, dose level Low, time 3 day
Please state the value followed by its unit.

Reported TERMINAL_BW of `CN(C)CCN(Cc1cccs1)c1ccccn1` : 219.5 g

Quick note, TERMINAL_BW for CC(C)OC(=O)C(C)(C)Oc1ccc(C(=O)c2ccc(Cl)cc2)cc1 [FENOFIBRATE] landed at 221.1 g

molecule `CC1=C(/C=C/C(C)=C/C=C/C(C)=C/CO)C(C)(C)CCC1` , TERMINAL_BW observed: 230.9 g

The measured TERMINAL_BW associated with `CN(C)CCCN1c2ccccc2CCc2ccccc21` reads 229.5 g

###

Species on record: Rattus norvegicus
Experiment: Open TG-GATES - Regimen: Daily Repeat
Type: toxicity, organism-based, Sprague-Dawley
Parameters: regimen Daily Repeat, gender Male, age 6 weeks
Conditions: in vivo, po, 300 mg/kg, […], tissue Plasma, route gavage, dose level Middle, time 14 day
VALUE KIND: K (meq/L)
Hi! Could you send only the number? It should be in meq/L, unit omitted.

MOLECULE: CCOc1ccc(NC(=O)CC(C)O)cc1 (centres undefined)
VALUE UNITS: meq/L
K: 4

GET /value?item= COc1ccc2[nH]c([S+]([O-])Cc3ncc(C)c(OC)c3C)nc2c1 (centres undefined) &field=K returns 3.9

Entry CCOC(=O)CCC(=O)O[C@H]1[C@H](O[C@@H]2[C@@H](C)[C@H](O[C@H]3C[C@@](C)(OC)[C@@H](O)[C@H](C)O3)[C@@H](C)C(=O)O[C@H](CC)[C@@](C)(O)[C@H](O)[C@@H](C)C(=O)[C@H](C)C[C@@]2(C)O)O[C@H](C)C[C@@H]1N(C)C [ERYTHROMYCIN ETHYLSUCCINATE] — recorded K = 4

The molecule listed as `COC1=CC(=O)C[C@@H](C)[C@]12Oc1c(Cl)c(OC)cc(OC)c1C2=O` has a reported K of 4.3

###

Reported IP values for a set of compounds
Species: Rattus norvegicus
Assay: Open TG-GATES - Regimen: Single
Type: toxicity, organism-based, Sprague-Dawley
Set-up: regimen Single, gender Male, age 6 weeks
Details: in vivo, po, 100 mg/kg, 24 h, tissue Plasma, route gavage, dose level High
Entry rule: numbers only, all in mg/dL.

CHEMICAL STRING: CC1=C(/C=C/C(C)=C/C=C/C(C)=C/CO)C(C)(C)CCC1
VALUE UNITS: mg/dL
IP: 7.4

Kindly note the recorded IP for `CN(C)CCCN1c2ccccc2CCc2ccc(Cl)cc21` , which is 8.3

# compound `CN(C)CCN(Cc1cccs1)c1ccccn1` ; its IP = 7.8

For record `CN(C)CCCN1c2ccccc2CCc2ccccc21` the listed IP is 8.2

###

Organism: Rattus norvegicus
Assay: Open TG-GATES - Regimen: Single
Format: toxicity, organism-based, Sprague-Dawley
Design: regimen Single, gender Male, age 6 weeks
Conditions: in vivo, po, 0 mg/kg, 9 h, tissue Blood, route gavage, dose level Control
VALUE KIND: Hb (g/dL)
Answer in g/dL, number only, no unit symbol.

COMPOUND: CN(C)CCN(Cc1cccs1)c1ccccn1
Hb / g/dL: 13

COMPOUND: CN1C(=O)CN=C(c2ccccc2)c2cc(Cl)ccc21
Hb / g/dL: 13.6

COMPOUND: CC/C(=C(\c1ccccc1)c1ccc(OCCN(C)C)cc1)c1ccccc1
Hb / g/dL: 12.8

COMPOUND: COc1cc2c(c(OC)c1OC)-c1ccc(OC)c(=O)cc1[C@@H](NC(C)=O)CC2
Hb / g/dL: 12.8

COMPOUND: NC(N)=Nc1nc(CSCCC(N)=NS(N)(=O)=O)cs1
Hb / g/dL: 13.3

COMPOUND: CC1=C(/C=C/C(C)=C/C=C/C(C)=C/CO)C(C)(C)CCC1
Hb / g/dL: 13.1

GET /value?item= CCOC(=O)CCC(=O)O[C@H]1[C@H](O[C@@H]2[C@@H](C)[C@H](O[C@H]3C[C@@](C)(OC)[C@@H](O)[C@H](C)O3)[C@@H](C)C(=O)O[C@H](CC)[C@@](C)(O)[C@H](O)[C@@H](C)C(=O)[C@H](C)C[C@@]2(C)O)O[C@H](C)C[C@@H]1N(C)C [ERYTHROMYCIN ETHYLSUCCINATE] &field=Hb returns 13

Sure, the documented Hb for `Cc1ccc(C)c(OCCCC(C)(C)C(=O)O)c1` is 14

###

Organism: Rattus norvegicus
Experiment: Open TG-GATES - Regimen: Single
Assay type: toxicity, organism-based, Sprague-Dawley
Parameters: regimen Single, gender Male, age 6 weeks
Conditions: in vivo, po, 0 mg/kg, 9 h, tissue Kidney, route gavage, dose level Control
Recorded KIDNEY_L by entry

Record excerpt, results attached:
MOLECULE: CC(C)OC(=O)C(C)(C)Oc1ccc(C(=O)c2ccc(Cl)cc2)cc1 [FENOFIBRATE]
KIDNEY_L: 0.8 g
//
MOLECULE: CCOc1ccc(NC(=O)CC(C)O)cc1 (configuration not stated) [BUCETIN]
KIDNEY_L: 0.9 g
//
MOLECULE: COc1ccc2[nH]c([S+]([O-])Cc3ncc(C)c(OC)c3C)nc2c1 (configuration not stated) [OMEPRAZOLE]
KIDNEY_L: 0.9 g

Notebook: NNC(=O)c1ccncc1 [ISONIAZID] , KIDNEY_L read as 0.9 g

For this molecule ( Cc1ccc(C)c(OCCCC(C)(C)C(=O)O)c1 [GEMFIBROZIL] ), measured KIDNEY_L is 0.9 g

// field: KIDNEY_L; key: CCCNC(=O)NS(=O)(=O)c1ccc(Cl)cc1 [CHLORPROPAMIDE] ; value = 0.9 g

Looking up COc1cc2c(c(OC)c1OC)-c1ccc(OC)c(=O)cc1[C@@H](NC(C)=O)CC2 [COLCHICINE] , I found its KIDNEY_L recorded as 1 g

Consider CN(C)CCCN1c2ccccc2CCc2ccccc21 [IMIPRAMINE] . Its measured KIDNEY_L is 0.9 g

// O=C(CCCN1CCC(O)(c2ccc(Cl)cc2)CC1)c1ccc(F)cc1 [HALOPERIDOL] : KIDNEY_L value = 0.9 g

KIDNEY_L in this record for NC(N)=Nc1nc(CSCCC(N)=NS(N)(=O)=O)cs1 [FAMOTIDINE] : 1 g

For COC1=CC(=O)C[C@@H](C)[C@]12Oc1c(Cl)c(OC)cc(OC)c1C2=O [GRISEOFULVIN] the molecule record lists KIDNEY_L as 0.9 g

get_value(item= CC/C(=C(\c1ccccc1)c1ccc(OCCN(C)C)cc1)c1ccccc1 [TAMOXIFEN] , readout=KIDNEY_L) returns 0.8 g

The value of KIDNEY_L measured for the molecule CCOC(=O)CCC(=O)O[C@H]1[C@H](O[C@@H]2[C@@H](C)[C@H](O[C@H]3C[C@@](C)(OC)[C@@H](O)[C@H](C)O3)[C@@H](C)C(=O)O[C@H](CC)[C@@](C)(O)[C@H](O)[C@@H](C)C(=O)[C@H](C)C[C@@]2(C)O)O[C@H](C)C[C@@H]1N(C)C [ERYTHROMYCIN ETHYLSUCCINATE] turned out to be 1 g

Reported KIDNEY_L ( `CN(C)CCN(Cc1cccs1)c1ccccn1` ) = 0.8 g

Data point: CC1=C(/C=C/C(C)=C/C=C/C(C)=C/CO)C(C)(C)CCC1 [RETINOL] ; KIDNEY_L = 0.9 g

Recorded KIDNEY_L (molecule CN(C)CCCN1c2ccccc2CCc2ccc(Cl)cc21 [CLOMIPRAMINE] ): 1 g

Query CN1C(=O)CN=C(c2ccccc2)c2cc(Cl)ccc21 [DIAZEPAM] yields KIDNEY_L of 1 g

Measured values drawn from ChEMBL document CHEMBL3885861 for this set.
